test system: Aβ peptide (1-40 amino acid sequence); assay: Anti-Aβ IgG antibody titer of murine serum after immunization with Aβ peptides (ELISA on immobilized Aβ 1-40); format: in vivo, C57BL/6 mice; conditions: Example 8; C57BL/6 mouse serum, Day 7 from final 3rd immunization, 100 μg/mouse
value-kind: Antibody titer Animal No. 1 (ng/mL)
Respond numerically; units are ng/mL and should not be typed.

I have this sequence here, DAEFRHDSGYEVHHQKLVCKGAIIGLMVG [1-18Cys28-37AA, Aβ residues 1-18, cysteine, then Aβ residues 28-37] , and I need its recorded Antibody titer Animal No. 1. 12541

How about DAEFRHDSGYEVHHQKLVCKGAIIGLMVGC [1-18Cys28-37AACys, Aβ residues 1-18, cysteine, Aβ residues 28-37, C-terminal cysteine] ? 1073

How about DAEFRHDSGYEVHHQKLVKGAIIGLMVG [1-18•28-37AA, reference compound] ? 11

How about DAEFRHDSGYEVHHQKLVKGAIIGLMVGC [1-18•28-37AACys] ? 11

====

Exercise: for every item that follows, state its recorded Antibody titer Animal No. 4.
tested on: Aβ peptide (1-40 amino acid sequence); assay: Anti-Aβ IgG antibody titer of murine serum after immunization with Aβ peptides (ELISA on immobilized Aβ 1-40); format: in vivo, C57BL/6 mice; details: Example 8; C57BL/6 mouse serum, Day 7 from final 3rd immunization, 100 μg/mouse
Respond numerically; units are ng/mL and should not be typed.

I have this sequence here, DAEFRHDSGYEVHHQKLVCKGAIIGLMVG [1-18Cys28-37AA, Aβ residues 1-18, cysteine, then Aβ residues 28-37] , and I need its recorded Antibody titer Animal No. 4. 25102

How about DAEFRHDSGYEVHHQKLVKGAIIGLMVGC [1-18•28-37AACys] ? 13

How about DAEFRHDSGYEVHHQKLVKGAIIGLMVG [1-18•28-37AA, reference compound] ? 9

How about DAEFRHDSGYEVHHQKLVCKGAIIGLMVGC [1-18Cys28-37AACys, Aβ residues 1-18, cysteine, Aβ residues 28-37, C-terminal cysteine] ? 4864

====

test system: Aβ peptide (1-40 amino acid sequence); experiment: Anti-Aβ IgG antibody titer of murine serum after immunization with Aβ peptides (ELISA on immobilized Aβ 1-40); assay type: in vivo, C57BL/6 mice; conditions: Example 4; C57BL/6 mouse serum, Day 7 from final 3rd immunization, 100 μg/mouse
value-kind: Antibody titer Animal No. 4 (ng/mL)
Respond numerically; units are ng/mL and should not be typed.

Give recorded Antibody titer Animal No. 4 with Aβ peptide (1-40 amino acid sequence) for the following sequence: AEFRHDSGKGAIIGLMVGC (added cysteine) [2-9•28-37AACys, 2-9+28-37-amino acid Aβ peptide with addition of Cysteine] 17

How about AEFRHDSGYKGAIIGLMVGC [2-10•28-37AACys, 2-10+28-37-amino acid Aβ peptide with addition of Cysteine] ? 42593

How about EFRHDSGYKGAIIGLMVGC (added cysteine) [3-10•28-37AACys, 3-10+28-37-amino acid Aβ peptide with addition of Cysteine] ? 52

How about FRHDSGYKGAIIGLMVGC (added cysteine) [4-10•28-37AACys, 4-10+28-37-amino acid Aβ peptide with addition of Cysteine] ? 27

====

Exercise: for every item that follows, state its recorded Antibody titer Animal No. 1.
tested on: Aβ peptide (1-40 amino acid sequence); experiment: Anti-Aβ IgG antibody titer of murine serum after immunization with Aβ peptides (ELISA on immobilized Aβ 1-40); type: in vivo, C57BL/6 mice; details: Example 1; C57BL/6 mouse serum, Day 7 from final 3rd immunization, 100 μg/mouse
Respond numerically; units are ng/mL and should not be typed.

I have this sequence here, DAEFRHDSGYGAIIGLMVGGVVIAC [1-10•29-42AACys, 1-10+29-42-amino acid Aβ peptide with addition of Cysteine] , and I need its recorded Antibody titer Animal No. 1. 16

How about DAEFRHDSGYKGAIIGLMVGGVVIAC [1-10•28-42AACys, 1-10+28-42-amino acid Aβ peptide with addition of Cysteine] ? 46266

How about DAEFRHDSGYAIIGLMVGGVVIAC [1-10•30-42AACys, 1-10+30-42-amino acid Aβ peptide with addition of Cysteine] ? 9

How about DAEFRHDSGYKGAIIGLMVGGVVIA [1-10•28-42AA, 1-10+28-42-amino acid Aβ peptide, without addition of cysteine, reference compound] ? 66

====

Exercise: for every item that follows, state its recorded Antibody titer Animal No. 2.
test system: Aβ peptide (1-40 amino acid sequence); assay: Anti-Aβ IgG antibody titer of murine serum after immunization with Aβ peptides (ELISA on immobilized Aβ 1-40); format: in vivo, C57BL/6 mice; details: Example 1; C57BL/6 mouse serum, Day 7 from final 3rd immunization, 100 μg/mouse
Respond numerically; units are ng/mL and should not be typed.

I have this sequence here, DAEFRHDSGYKGAIIGLMVGGVVIAC [1-10•28-42AACys, 1-10+28-42-amino acid Aβ peptide with addition of Cysteine] , and I need its recorded Antibody titer Animal No. 2. 19854

How about DAEFRHDSGYGAIIGLMVGGVVIAC [1-10•29-42AACys, 1-10+29-42-amino acid Aβ peptide with addition of Cysteine] ? 16

How about DAEFRHDSGYAIIGLMVGGVVIAC [1-10•30-42AACys, 1-10+30-42-amino acid Aβ peptide with addition of Cysteine] ? 7

How about DAEFRHDSGYKGAIIGLMVGGVVIA [1-10•28-42AA, 1-10+28-42-amino acid Aβ peptide, without addition of cysteine, reference compound] ? 715

====

tested on: Aβ peptide (1-40 amino acid sequence); test: Anti-Aβ IgG antibody titer of murine serum after immunization with Aβ peptides (ELISA on immobilized Aβ 1-40); format: in vivo, C57BL/6 mice; settings: Example 4; mean of 4 mice, serum Day 7 from final 3rd immunization, 100 μg/mouse
Exercise: for every item that follows, state its recorded Antibody titer Mean.
Respond numerically; units are ng/mL and should not be typed.

Give recorded Antibody titer Mean with Aβ peptide (1-40 amino acid sequence) for the following sequence: EFRHDSGYKGAIIGLMVGC (added cysteine) [3-10•28-37AACys, 3-10+28-37-amino acid Aβ peptide with addition of Cysteine] 2302.8

How about AEFRHDSGYKGAIIGLMVGC [2-10•28-37AACys, 2-10+28-37-amino acid Aβ peptide with addition of Cysteine] ? 44787.5

How about FRHDSGYKGAIIGLMVGC (added cysteine) [4-10•28-37AACys, 4-10+28-37-amino acid Aβ peptide with addition of Cysteine] ? 33.8

How about AEFRHDSGKGAIIGLMVGC (added cysteine) [2-9•28-37AACys, 2-9+28-37-amino acid Aβ peptide with addition of Cysteine] ? 9139.9
